# target: Inhibitor of nuclear factor kappa-B kinase subunit beta (Homo sapiens, UniProt O14920)
# experiment.notes: Inhibitory activity against IKK2
measurement.label: IC50 (µM)

// solved cases for IC50 follow
O=S(=O)(c1ccc(-c2ccnc(Nc3ccccc3)n2)cc1)N1CCNCC1: 0.091
NC(=O)Nc1ccc(Nc2nccc(-c3ccc(S(=O)(=O)N4CCNCC4)cc3)n2)cc1: 0.155

[a] O=S(=O)(c1ccc(-c2ccnc(Nc3cc(F)cc(F)c3)n2)cc1)N1CCNCC1
[b] NS(=O)(=O)c1ccc(Nc2nccc(-c3ccc(S(=O)(=O)N4CCNCC4)cc3)n2)cc1
[c] Cc1ccc(Nc2nccc(-c3ccc(S(=O)(=O)N4CCNCC4)cc3)n2)cc1
[d] O=[N+]([O-])c1ccc(Nc2nccc(-c3ccc(S(=O)(=O)N4CCNCC4)cc3)n2)cc1
Input line: Arrange the 4 entries by IC50 so the values rise. Return the labels ranked in the requested order, please.
Output line: b, d, a, c
(b: 0.011 µM, d: 0.066 µM, a: 0.117 µM, c: 0.269 µM)

[a] N#Cc1cccc(Nc2nccc(-c3ccc(S(=O)(=O)N4CCNCC4)cc3)n2)c1
[b] NC(=O)c1ccc(Nc2nccc(-c3ccc(S(=O)(=O)N4CCNCC4)cc3)n2)cc1
Input line: I would appreciate it if you could say which entry, a or b , has the lower IC50 value. Lab log: write the label of the selected item as the result.
Output line: b

* * *

# Species on record: Homo sapiens
# experiment.notes: Selectivity for IKK2/IKK1
measurement.label: Selectivity

// solved cases for Selectivity follow
CC(=O)c1cc2cc(-c3ccc(Nc4nccc(-c5ccc(S(=O)(=O)N6CCNCC6)cc5)n4)cc3)ccc2o1: 65
COc1cc(Nc2nccc(-c3ccc(S(=O)(=O)N4CCNCC4)cc3)n2)cc(OC)c1OC: 1
CCCCc1ccc(Nc2nccc(-c3ccc(S(=O)(=O)N4CCNCC4)cc3)n2)cc1: 9
NC(=O)c1ccc(Nc2nccc(-c3ccc(S(=O)(=O)N4CCNCC4)cc3)n2)cc1: 83
C[S+]([O-])c1ccc(Nc2nccc(-c3ccc(S(=O)(=O)N4CCNCC4)cc3)n2)cc1 (centres undefined): 26

[A] NS(=O)(=O)c1ccc(Nc2nccc(-c3ccc(S(=O)(=O)N4CCNCC4)cc3)n2)cc1
[B] O=S(=O)(c1ccc(-c2ccnc(Nc3ccccc3)n2)cc1)N1CCNCC1
[C] O=[N+]([O-])c1ccc(Nc2nccc(-c3ccc(S(=O)(=O)N4CCNCC4)cc3)n2)cc1
Input line: Arrange these molecules by their Selectivity, starting with the largest number. Return the labels ranked in the requested order, please.
Output line: C, A, B
(C: 105, A: 21, B: 13)

* * *

# target: Inhibitor of nuclear factor kappa-B kinase subunit alpha (Homo sapiens, UniProt O15111)
# Sequence (O15111 whole entry): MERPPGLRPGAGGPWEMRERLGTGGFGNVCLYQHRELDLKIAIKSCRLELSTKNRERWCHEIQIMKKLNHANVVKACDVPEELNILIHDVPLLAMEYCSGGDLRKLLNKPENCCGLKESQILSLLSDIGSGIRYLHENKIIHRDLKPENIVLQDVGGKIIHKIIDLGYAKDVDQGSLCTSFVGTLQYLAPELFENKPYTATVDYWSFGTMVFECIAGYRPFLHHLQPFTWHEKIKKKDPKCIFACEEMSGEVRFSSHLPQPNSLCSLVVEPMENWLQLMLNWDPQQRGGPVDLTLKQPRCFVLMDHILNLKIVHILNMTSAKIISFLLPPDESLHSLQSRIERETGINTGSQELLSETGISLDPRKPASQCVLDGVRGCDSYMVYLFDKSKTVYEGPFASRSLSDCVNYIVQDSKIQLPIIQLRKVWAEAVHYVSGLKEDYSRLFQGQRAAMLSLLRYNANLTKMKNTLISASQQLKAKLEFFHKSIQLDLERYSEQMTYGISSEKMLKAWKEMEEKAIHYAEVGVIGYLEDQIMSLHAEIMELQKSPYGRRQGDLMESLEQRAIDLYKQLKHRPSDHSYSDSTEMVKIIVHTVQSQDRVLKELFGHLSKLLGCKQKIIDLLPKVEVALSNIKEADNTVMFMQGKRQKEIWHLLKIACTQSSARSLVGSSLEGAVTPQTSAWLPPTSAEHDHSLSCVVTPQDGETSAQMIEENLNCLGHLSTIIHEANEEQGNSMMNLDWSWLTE
# experiment.notes: Inhibitory activity against IKK1
pIC50: −log10 of the molar value.
measurement.label: pIC50

[I] O=S(=O)(c1ccc(-c2ccnc(Nc3ccccc3)n2)cc1)N1CCNCC1
[II] NC(=O)c1ccc(Nc2nccc(-c3ccc(S(=O)(=O)N4CCNCC4)cc3)n2)cc1
Input line: I would appreciate it if you could say which entry, I or II , has the lower pIC50 value. Lab log: write the label of the selected item as the result.
Output line: II

[a] O=S(=O)(c1ccc(-c2ccnc(Nc3ccc(C(F)(F)F)cc3)n2)cc1)N1CCNCC1
[b] CC(=O)c1cc2cc(-c3ccc(Nc4nccc(-c5ccc(S(=O)(=O)N6CCNCC6)cc5)n4)cc3)ccc2o1
Input line: I would appreciate it if you could say which entry, a or b , has the lower pIC50 value. Lab log: write the label of the selected item as the result.
Output line: a

* * *

# Organism: Homo sapiens
# experiment.notes: Selectivity for IKK2/IKK1
measurement.label: Selectivity

O=S(=O)(c1ccc(-c2ccnc(Nc3ccc(C(F)(F)F)cc3)n2)cc1)N1CCNCC1: 8

[1] N#Cc1cccc(Nc2nccc(-c3ccc(S(=O)(=O)N4CCNCC4)cc3)n2)c1
[2] NC(=O)c1c[nH]c2ccc(-c3ccc(Nc4nccc(-c5ccc(S(=O)(=O)N6CCNCC6)cc5)n4)cc3)cc12
Input line: I would appreciate it if you could say which entry, 1 or 2 , has the lower Selectivity value. Lab log: write the label of the selected item as the result.
Output line: 2
(2: 6, 1: 62)

* * *

# target: Inhibitor of nuclear factor kappa-B kinase subunit beta (Homo sapiens)
# Sequence (O14920 whole entry): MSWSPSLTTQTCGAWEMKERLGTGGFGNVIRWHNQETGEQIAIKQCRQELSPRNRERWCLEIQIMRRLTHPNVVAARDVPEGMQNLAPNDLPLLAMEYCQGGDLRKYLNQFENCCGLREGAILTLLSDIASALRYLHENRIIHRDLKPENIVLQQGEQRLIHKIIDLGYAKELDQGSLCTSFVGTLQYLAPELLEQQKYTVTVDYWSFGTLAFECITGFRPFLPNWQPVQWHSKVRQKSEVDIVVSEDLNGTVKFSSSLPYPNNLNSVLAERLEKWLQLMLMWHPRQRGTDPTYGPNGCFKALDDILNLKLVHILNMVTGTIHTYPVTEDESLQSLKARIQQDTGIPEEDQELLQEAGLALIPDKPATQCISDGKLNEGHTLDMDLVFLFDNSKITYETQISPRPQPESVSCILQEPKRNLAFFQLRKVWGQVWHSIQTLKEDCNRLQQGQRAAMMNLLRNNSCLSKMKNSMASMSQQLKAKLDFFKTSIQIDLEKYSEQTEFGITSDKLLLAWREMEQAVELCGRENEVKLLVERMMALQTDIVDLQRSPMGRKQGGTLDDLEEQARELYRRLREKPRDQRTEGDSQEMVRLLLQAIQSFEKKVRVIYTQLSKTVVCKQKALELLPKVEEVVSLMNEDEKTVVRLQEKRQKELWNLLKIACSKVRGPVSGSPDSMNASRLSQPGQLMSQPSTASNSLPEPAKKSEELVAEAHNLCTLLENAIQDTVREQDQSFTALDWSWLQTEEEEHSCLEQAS
# experiment.notes: Inhibitory activity against IKK2
pIC50: −log10 of the molar value.
measurement.label: pIC50

[1] COc1ccc(Nc2nccc(-c3ccc(S(=O)(=O)N4CCNCC4)cc3)n2)cc1
[2] C[S+]([O-])c1ccc(Nc2nccc(-c3ccc(S(=O)(=O)N4CCNCC4)cc3)n2)cc1 (stereo unspecified)
Input line: 1 or 2 : whose pIC50 is greater? Lab log: write the label of the selected item as the result.
Output line: 2

[a] CC(=O)c1cc2cc(-c3ccc(Nc4nccc(-c5ccc(S(=O)(=O)N6CCNCC6)cc5)n4)cc3)ccc2o1
[b] O=S(=O)(c1ccc(-c2ccnc(Nc3ccc(C(F)(F)F)cc3)n2)cc1)N1CCNCC1
Input line: a or b : whose pIC50 is greater? Lab log: write the label of the selected item as the result.
Output line: a
(a: 7.59, b: 6.29)

[I] COc1cc(Nc2nccc(-c3ccc(S(=O)(=O)N4CCNCC4)cc3)n2)cc(OC)c1OC
[II] CCCCc1ccc(Nc2nccc(-c3ccc(S(=O)(=O)N4CCNCC4)cc3)n2)cc1
Input line: I would appreciate it if you could say which entry, I or II , has the lower pIC50 value. Lab log: write the label of the selected item as the result.
Output line: II

These measurements were taken from ChEMBL document CHEMBL1146833.
